Each record here notes measured activation.
experiment: qHTS assay for re-activators of p53 using a Luc reporter: Hit Validation; also: nearly all actives have a fitted effect of over 75% in size; as to activation: 0% is about no effect
measurement context: p53-responsive luciferase reporter cells, luminescence, H1299 line expressing heat-sensitive Ala138Val p53; series mostly up to 46.1 µM
Results filed as inconclusive are left out. Active and inactive are the calls of the source. Calls follow the shape of the dose curve; as a rule, active = well fitted activation curve with a large enough effect; inconclusive = small, poorly fitted or top-dose-only effect; inactive = no such curve, though single readings can be large or run the other way.

Worked cases, activation given:
CCN(Cc1ccccc1)C(=O)CN1C(=S)NC(C)(C)CC1C (stereo unspecified)
-15.4% [at 9.22 µM] (inactive)
CCCN1C(=O)SC(CC(=O)Nc2ccccc2C)C1=O (stereo unspecified)
12.4% [at 9.22 µM] (inactive)

Enquiry: Query (compound): COCC(C)NC(=O)C1CC(=O)N(c2ccc(C)cc2)C1 (stereo unspecified) ; field requested: activation
Return: -21.3% [at 9.22 µM] (inactive)

Enquiry: Next: Cc1cccc(C)c1NC(=O)CC(NCc1ccco1)C(=O)O (stereo unspecified)
Return: -13.7% [at 9.22 µM] (inactive)

Enquiry: Follow-up entry: Cc1cccc2nc(CSC(=N)N)c(Br)n12
Return: 3.7% [at 9.22 µM] (inactive)

Enquiry: What do you have for CCc1ccc2c(CN(CC)Cc3nc4ccccc4c(=O)[nH]3)cc(=O)oc2c1 ?
Return: -11.9% [at 9.22 µM] (inactive)

Enquiry: Request: Nc1nonc1-n1nnc(C(=O)N/N=C/c2cc(Br)ccc2O)c1CSC1=NCCS1
Return: -26.8% [at 9.22 µM] (inactive)

Enquiry: Then what about the compound COCCSc1nnc(NC(=O)CCS(=O)(=O)c2ccccc2)s1 ?
Return: -38.9% [at 9.22 µM] (inactive)

Enquiry: Consider next the compound COc1cc(NC(=O)CN2CCCCC2)c(C)cc1[N+](=O)[O-] in the same way.
Return: 9.16% [at 9.22 µM] (inactive)

Enquiry: COc1cc(C(=O)NCCc2cn3ccc(C)cc3n2)cc(OC)c1OC , same question.
Return: 13.6% [at 9.22 µM] (inactive)

Enquiry: Okay, and O=C(/C=C/c1ccccc1)NC1CCSC1=O (stereo unspecified) ?
Return: 23.4% [at 9.22 µM] (inactive)

* * *

experiment: qHTS assay for re-activators of p53 using a Luc reporter: Hit Validation; also: nearly all actives have a fitted effect of over 75% in size; also: potency is read from the fitted curve at half-maximal effect; as to activation: 0% is about no effect
measurement context: p53-responsive luciferase reporter cells, luminescence, H1299 line expressing heat-sensitive Ala138Val p53; series mostly up to 46.1 µM
Inconclusive results are not listed. Activity calls are given as the source filed them. The call rests on the fitted dose curve; in most records, active means well fitted activation curve with a large enough effect; inconclusive means small, poorly fitted or top-dose-only effect; inactive means no such curve, though single readings can be large or run the other way.
readout label: Potency

Below, each entry is followed by its recorded Potency result.
Cc1cc(C(c2nnnn2Cc2ccccc2)N2CCOCC2)c(C)n1-c1ccc2c(c1)OCO2 (centres undefined)
inactive
CCCCOC(=O)c1ccc(NC(=O)CSc2nncn2C)cc1
inactive
CCOC(=O)c1c(C)[nH]c(C(=O)OCCOc2ccccc2C)c1C
1.3 µM (active)
CC(Cc1ccccc1)NC(=O)c1ccc([N+](=O)[O-])cc1 (centres undefined)
2.59 µM (active)
O=C(Nc1cccnc1)c1ccc([N+](=O)[O-])s1
inactive

Enquiry: Given the entry COc1cc(/C=N/Nc2nc3ccccc3s2)ccc1OC(=O)c1ccccc1F , report its measured Potency.
Return: 1.46 µM (active)

Enquiry: What do you have for Cc1ccc(NC2=C(Cl)C(=O)c3ccccc3C2=O)cc1 ?
Return: inactive

Enquiry: Now give it for COc1ccc(N2CCN(CC(=O)Nc3ccc(C)cc3)CC2)cc1 too.
Return: inactive

Enquiry: Likewise for Clc1ccc(-c2nnc(SCc3ccon3)o2)c(Cl)c1 ?
Return: 0.366 µM (active)

Enquiry: Subsequent entry: Cc1nc2cc(-c3ccccc3)nn2c(N)c1-c1ccccc1
Return: 0.411 µM (active)
